B1: Ankyrin-1, residues 1405 to 1484; numbered along this chain, P16157 (parent)
chain: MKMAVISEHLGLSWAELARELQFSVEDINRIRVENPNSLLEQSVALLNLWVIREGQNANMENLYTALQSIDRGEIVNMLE

variants of: B1; experiment: abundance fitness (aPCA) (normalised: wild type 0, dead -1); higher = more abundant; growth selection in yeast, the domain comes from the species named; details: Homo sapiens
Response key: 1 means abundance fitness >= -0.2; 0 means abundance fitness < -0.2.

Some solved entries appear below for comparison.
   mutation_label  assigned_class
0            N57H               0
1            E74L               0
2            M60T               0

Hi team, for `N62A` , is the recorded abundance fitness at or above -0.2?
1

Hi team, for `Q42N` , is the recorded abundance fitness at or above -0.2?
0

The values you see were collected from the Human Domainome abundance scans (Beltran et al. 2025).
